- SYSTEM_UNDER_TEST: recombinant human FLAP protein (Homo sapiens)
- Construct: made in house; host or cells: Sf9 insect cells (membrane fraction, 100,000 x g pellet)
- Sequence (P20292 whole entry): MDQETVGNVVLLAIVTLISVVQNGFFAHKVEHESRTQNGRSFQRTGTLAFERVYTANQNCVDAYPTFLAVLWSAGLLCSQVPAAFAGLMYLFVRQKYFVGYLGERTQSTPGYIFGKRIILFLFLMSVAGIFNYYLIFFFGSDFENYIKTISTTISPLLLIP
- TEST_PROTOCOL: FLAP binding assay (Scintillation Proximity Assay, displacement of [125I]L-691,831)
- MEASUREMENT_SETUP: read-out: Human FLAP SPA Binding (IC50 nM)
PARAMETER: IC50
Please answer using the number first and the unit second.

Could you please provide reported IC50 for Cc1ccc(-c2coc(C3(c4ccc(-c5cnc(N)nc5)cc4)CCC3)n2)cn1 ? Thanks!
2.8 nM

Quote IC50 reported for Cn1cc(-c2coc([C@](C)(c3ccc(-c4cnc(N)nc4)cc3)C3CC3)n2)cn1 please.
87 nM

Fill in reported IC50 for this entry: CC(C)C(C)(c1ccc(-c2cnc(N)nc2)cc1)c1c[nH]c2ccc(F)cc12 (stereo not shown)
3 nM

Query IC50 for Cn1cc(-c2c(C3(c4ccc(-c5cnc(N)nc5)cc4)CCC3)c3ccccc3n2C(=O)OC(C)(C)C)cn1
270 nM
